# System: WT-GBM tumor
# CONDITION_DESCRIPTION: i.v. equimolar mix, 2 h circulation
RECORDED_METRIC: Representation of phage in tumors (fold G7 control phage), WT-GBM (fold)
# output: bare number, implied unit fold

Known Representation of phage in tumors (fold G7 control phage), WT-GBM results, listed for orientation:
SUBSTANCE: RGRLVRAK
RESULT_UNITS: fold
VALUE_MEASURED: 23.8
--
SUBSTANCE: CSRRGILRAKPAAALE
RESULT_UNITS: fold
VALUE_MEASURED: 1.5
--
SUBSTANCE: CRGVLRRAKLAAALE
RESULT_UNITS: fold
VALUE_MEASURED: 1.6
--
SUBSTANCE: RGRLVRA
RESULT_UNITS: fold
VALUE_MEASURED: 3
--
SUBSTANCE: VGRVRFSRKLAAALE
RESULT_UNITS: fold
VALUE_MEASURED: 2.5
--
SUBSTANCE: GGGGGGG [reference compound]
RESULT_UNITS: fold
VALUE_MEASURED: 1.0
--
SUBSTANCE: RRLVRVA
RESULT_UNITS: fold
VALUE_MEASURED: 1.4
--
SUBSTANCE: AGRGRLVRAKLAAALE
RESULT_UNITS: fold
VALUE_MEASURED: 23.9
--
SUBSTANCE: GRLTRVR
RESULT_UNITS: fold
VALUE_MEASURED: 1.9
--
SUBSTANCE: AGVGRLRRAKLAAALE
RESULT_UNITS: fold
VALUE_MEASURED: 2.3

Which measured Representation of phage in tumors (fold G7 control phage), WT-GBM value corresponds to AGRGRLVR [PL3] ?
24.1

Which measured Representation of phage in tumors (fold G7 control phage), WT-GBM value corresponds to AVRGRLRVAKLAAALE ?
1.3

Which measured Representation of phage in tumors (fold G7 control phage), WT-GBM value corresponds to CAGRGRLVRC ?
0.9
